target: HIF-2α HIS TAG-PASB Domain; assay: HIF-2α Scintillation Proximity Assay (SPA), probe displacement
pIC50: −log10 of the molar value.
outcomeMeasure: pIC50

// query Data request, read-out pIC50, for "O=S(=O)(c1ccc(Oc2ccc(F)c(Cl)c2)c2c1[C@H](O)C(F)(F)C2)C(F)F"
// result > 8.30
